Would you kindly list protein stability index for each of these variants?
B1: KLHDC10 (parent)
chain: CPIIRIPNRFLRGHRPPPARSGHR

# Variants of: B1
# experiment-summary: protein stability index of a GFP-peptide fusion (GPS, HEK-293T) (PSI 1-6); higher = more stable;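 also: lentivirally expressed fusions sorted by FACS into six bins by GFP to DsRed ratio, PSI derived from sequencing read proportions per bin multiplied by bin number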
# experimental-parameters: c terminus: a fixed tail appended
One number for each entry.

Solved entries (count: 10):
mutant-id	protein stability index
R24H	2.01
G13C	1.53
S21R	1.97
P18C	1.82
R24I	2.99
G22V	2.76
H14C	1.48
A19V	1.48
H23G	2.02
R9F	2.94

Quick batch: protein stability index for everything below.
1. I6V
2. N8G
3. F10Q
4. G13R
5. P17L
6. A19D
7. C1M

1. 2.77
2. 1.38
3. 2.63
4. 1.74
5. 2.28
6. 2.95
7. 3.21

Quick batch: protein stability index for everything below.
1. H23P
2. H14I
3. R5K

1: 1.67; 2: 1.87; 3: 3.59

Quick batch: protein stability index for everything below.
1. P7F
2. R15E

1. 2.28
2. 1.92
